- System: SNB-75
- assay.protocol: NCI tumour cell line growth inhibition, 48 h
Calls of active or inactive are those of the source. Cut-off read from the data, not from the text of the source: active = GI50 up to about 1.1 µM and inactive = higher.
measurement.type: GI50

compound | GI50
COc1cccc(/N=N/C(=N\NC(=O)c2ccc(C)cc2)c2ccc(N(CCC#N)CCC#N)cc2C)c1 | 53.1 µM (inactive)
O=C(Nc1ccccc1)c1nn(-c2cc(S(=O)(=O)O)c([N+](=O)[O-])cc2Cl)[n+](-c2cc(S(=O)(=O)[O-])c([N+](=O)[O-])cc2Cl)n1 | > 100 µM (inactive)
CCCCCCCC(CC(=O)NC(CO)C(=O)NC(CO)CC(C)C)OC(=O)CC(CCCCCCC)OC(=O)CC(CCCCCCC)OC1OC(C)C(O)C(OC2OC(C)C(O)C(OC(C)=O)C2O)C1O (centres undefined) | 5.56 µM (inactive)

Now let's try a different one.
Give me measured GI50, please, for this compound: O=C(N[C@@H](c1ccccc1)[C@@H](O)C(=O)OCc1ccc([N+](=O)[O-])cc1)c1ccccc1
44.1 µM (inactive)
